B1: Azoarcus group I ribozyme (parent)
chain: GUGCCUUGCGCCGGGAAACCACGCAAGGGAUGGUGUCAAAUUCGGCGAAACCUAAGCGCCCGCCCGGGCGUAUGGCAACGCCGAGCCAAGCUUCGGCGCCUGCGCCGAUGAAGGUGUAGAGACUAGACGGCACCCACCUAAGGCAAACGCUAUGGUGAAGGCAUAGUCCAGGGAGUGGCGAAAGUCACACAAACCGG

Variants of: B1
Test: reverse-splicing fitness (ratio to wild type); higher = more active; in vitro selection; Mg2+ level not given
Respond with yes (1) for reverse-splicing fitness values of 0.02 and above, no (0) for values below.

Consider the worked cases shown below.
Problem: Dear colleague, could you confirm whether A120C A145U C150G C169A U176A has reverse-splicing fitness at or above 0.02?
Solution: no (0)

Problem: Dear colleague, could you confirm whether A120C A145C C150G C169U U176A has reverse-splicing fitness at or above 0.02?
Solution: no (0)

Problem: Dear colleague, could you confirm whether A111G A120C A145G C150G C169U U176C has reverse-splicing fitness at or above 0.02?
Solution: no (0)

Problem: Dear colleague, could you confirm whether A111G A120U A145C C150U C169A U176A has reverse-splicing fitness at or above 0.02?
Solution: no (0)

Problem: Dear colleague, could you confirm whether C82G A111C A120C C150A C169U U176A has reverse-splicing fitness at or above 0.02?
Solution: no (0)

Others:
Problem: Dear colleague, could you confirm whether C82G A120G U176A has reverse-splicing fitness at or above 0.02?
Solution: no (0)

Problem: Dear colleague, could you confirm whether C82G A111G A120G A145U C150A C169G U176A has reverse-splicing fitness at or above 0.02?
Solution: no (0)
